test system: CSF1R-autoinhibited; conditions: concentration: 1 μM, replicates: in singlicate; n = 1;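 further: KINOMEscan kinase panel screen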
Please provide measured %Inh for the entries that follow.
Numeric answer only, unit % assumed.

Lab note: measured %Inh of CCCc1ccc(S(=O)(=O)NC2CCN(c3ccnc(Nc4ccc(F)cc4)n3)C2)cc1 (centres unmarked) was 0

Lab note: measured %Inh of Cn1ccc2ncnc(Oc3ccc(NC(=O)Nc4ccccc4)cc3)c21 was 10

Lab note: measured %Inh of Cc1cccc(-c2nc(Nc3ccc4[nH]ncc4c3)c3ccccc3n2)n1 was 33

Lab note: measured %Inh of COc1cccc(NC(=O)NC2CCN(c3ccnc(Nc4ccc(F)cc4)n3)C2)c1 (centres unmarked) was 17

Lab note: measured %Inh of Cc1ccc(C(=O)Nc2ccc(Nc3ccnc4cc(-c5ccccn5)ccc34)cc2O)cc1.Cl was 0

Lab note: measured %Inh of Cc1cc(N2Cc3ccccc3C2)nc(Nc2ccc(S(=O)(=O)N3CCOCC3)cc2)n1.Cl was 0

Lab note: measured %Inh of Cc1csc(-c2nc(Nc3ccncc3)c3ccccc3n2)n1 was 28

Lab note: measured %Inh of Cn1ccc2ncnc(Oc3ccc(Nc4nc5ccccc5[nH]4)cc3)c21 was 0

Lab note: measured %Inh of Cc1cc(NCC(c2ccccc2)c2ccccc2)nc(NCc2ccc(C(F)(F)F)cc2)n1 was 30

Lab note: measured %Inh of COc1cccc(-c2cc(-c3c[nH]nc3-c3ccccn3)ccn2)c1 was 51

Lab note: measured %Inh of CSc1nn2c(=O)cc(N3CCOCC3)nc2n1Cc1cccc(C(F)(F)F)c1C was 0

Lab note: measured %Inh of O=C(Nc1n[nH]c2nc(-c3nccs3)c(Br)cc12)C1CCCC1 was 0

Lab note: measured %Inh of COc1ccccc1-c1ccc2c(NC(=O)C3CC3)n[nH]c2n1 was 30

Lab note: measured %Inh of Cc1ccc(NC(=O)Nc2cc(C(C)(C)C)nn2-c2ccccc2)cc1 was 0

Lab note: measured %Inh of Cc1cc(-c2ccc3c(c2)CC[C@@H](N[C@@H](C)c2ccccc2)C3)cnc1N.Cl was 0

Lab note: measured %Inh of COc1cc(Nc2nccc(N3CCC(NC(=O)Nc4cc(C)ccc4C)C3)n2)cc(OC)c1OC (centres unmarked) was 0

Lab note: measured %Inh of COc1cc2nccc(Nc3ccc(NC(=O)c4ccc(C)cc4)c(O)c3)c2cc1OC.Cl was 15

Lab note: measured %Inh of COC(=O)c1c(-c2ccccc2)c2cc(C(=O)O)ccc2c(=O)n1Cc1ccccc1 was 0

Lab note: measured %Inh of COC(=O)c1c(-c2ccccc2)c2cc(OC)ccc2c(=O)n1Cc1ccccc1 was 20

Lab note: measured %Inh of Cc1ccc(NC(=O)Nc2cccc(Cl)c2)cc1-c1ccc(C(=O)Nc2ccncc2)cc1 was 12

Lab note: measured %Inh of CCn1c(-c2cccnc2O)nc2cnccc21 was 2

Lab note: measured %Inh of Cc1ccccc1-n1cnc2c(N)ncnc21 was 0

Lab note: measured %Inh of O=C(Nc1ccc2c(c1)OCO2)NC1CCN(c2ccnc(Nc3ccc(F)cc3)n2)C1 (centres unmarked) was 0

Lab note: measured %Inh of O=C1NC(=O)C(N2CCc3ccccc32)=C1c1ccccc1Cl was 0

Lab note: measured %Inh of CS(=O)(=O)c1ccc(-c2c(-c3ncn[nH]3)sc(N3CCOCC3)c2C#N)cc1 was 0

Lab note: measured %Inh of Cn1cncc1-c1ccc2ncnc(Nc3ccc(OCc4ccccc4)cc3)c2c1 was 0

Lab note: measured %Inh of Cc1ccc(-c2cc(-c3c[nH]nc3-c3ccccn3)ccn2)cc1 was 49

Lab note: measured %Inh of COc1cc2ncn(-c3cc(OCC4CCCO4)c(C(N)=O)s3)c2cc1OC (centres unmarked) was 3

Lab note: measured %Inh of COc1cc2ncnc(Nc3ccc4nc(-c5ccccc5)[nH]c4c3)c2cc1OC.Cl was 0
